# Tested on: SK-MEL-5
# assay: NCI tumour cell line growth inhibition, 48 h
Activity calls are given as the source filed them. No stated cut-off is given here; in the data, active = GI50 up to about 1.1 µM and inactive = higher.
Measured GI50, listed per entry for reference.

molecule	observed.result
CCOC(=O)N1C/C(=C\c2ccccc2)C(=O)/C(=C/c2ccccc2)C1	2.97 µM (inactive)

Turning now to a further molecule:
query: Could you share what GI50 was measured for `O=C(/C=C/c1ccc(Cl)c(Cl)c1)c1ccccc1Cl` , tested on SK-MEL-5?
result: 13.7 µM (inactive)

* * *

# Tested on: KM-20L2
# assay: NCI tumour cell line growth inhibition, 48 h
Active and inactive are the calls of the source. Cut-off read from the data, not from the text of the source: active = GI50 up to about 1.1 µM and inactive = higher.
measurement.type: GI50

compound	assay.target	measurement.type	observed.result
Nc1ccc2c(c1)C(=O)N(O)C2=O	KM-20L2	GI50	> 100 µM (inactive)

query: Could you share what GI50 was measured for O=C1CCC(c2ccccc2)C(O)(C(=O)O)C1 (configuration not stated) , tested on KM-20L2?
result: > 100 µM (inactive)

query: Could you share what GI50 was measured for `N#CC1=C(O)NC(O)=C(C#N)C1c1ccc(C2C(C#N)=C(O)NC(O)=C2C#N)cc1` , tested on KM-20L2?
result: > 100 µM (inactive)

query: Could you share what GI50 was measured for CC(=O)O[C@]12CCCCC1C1(O)C(O)CCCCC12 (some centres not stated) , tested on KM-20L2?
result: > 100 µM (inactive)

query: Could you share what GI50 was measured for `C#CCN(Cc1ccc2nc(-c3ccccc3)c(N)nc2c1)c1cc(OC)c(OC)c(OC)c1` , tested on KM-20L2?
result: 41.3 µM (inactive)
